This listing pairs sequences with measured self-splicing fitness (ln).
- Assay: self-splicing fitness, log relative to wild type (ln ratio); higher = more splicing; Tetrahymena group I intron in knt gene, E. coli kanamycin selection, DiMSum; sequences stand for … in CUCUCU…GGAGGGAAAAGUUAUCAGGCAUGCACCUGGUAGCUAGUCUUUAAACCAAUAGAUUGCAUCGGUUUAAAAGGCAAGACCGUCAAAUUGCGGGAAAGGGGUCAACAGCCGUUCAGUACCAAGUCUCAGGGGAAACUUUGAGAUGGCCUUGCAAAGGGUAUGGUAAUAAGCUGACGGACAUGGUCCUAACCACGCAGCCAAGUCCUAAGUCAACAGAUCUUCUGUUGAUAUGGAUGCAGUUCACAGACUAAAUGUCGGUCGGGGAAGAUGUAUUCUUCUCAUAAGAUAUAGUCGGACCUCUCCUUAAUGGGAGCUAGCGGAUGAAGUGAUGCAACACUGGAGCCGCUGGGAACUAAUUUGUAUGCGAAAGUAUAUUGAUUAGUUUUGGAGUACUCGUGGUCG;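 note: selection with 25 µg/mL kanamycin versus none on LB agar overnight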
- Experimental Context: 37 °C
Please reply with the value in numeric form only.

Consider the worked cases shown below.
Reported self-splicing fitness (ln) of GUACAGCAAUAUUACGGUUA : -0.00855

Kindly note the recorded self-splicing fitness (ln) for UGGGAGCAAUAUUACGAGUC , which is -1.83

Further cases:
self-splicing fitness (ln) reading for AGCUAGCAAUAUUACGCUCA : -2.11

Lab book: self-splicing fitness (ln) of CACUAGCAAUAUUACGUCUU noted as -2.75

// AUACAGCAAUAUUACGCCUG : self-splicing fitness (ln) value = 0.29

Data point: AGAUAGCAAUAUUACGUACC ; self-splicing fitness (ln) = 0.0629

Record summary for CUGUAGCAAUAUUACGGAGC : reported self-splicing fitness (ln) = -2.55

The recorded self-splicing fitness (ln) for UGGCAGCAAUAUUACGCACC is -1.37

Form field self-splicing fitness (ln), entry UGACAGCAAUAUUACGUGGC : -3.11

get_value(item= UUACAGCAAUAUUACGCGAC , readout=self-splicing fitness (ln)) returns -1.41

Measured self-splicing fitness (ln), CAGGAGCAAUAUUACGUCGU : -1.97

The value of self-splicing fitness (ln) measured for the sequence UAGUAGCAAUAUUACGUGCC turned out to be -2.11

Data provenance: the supplement of paper PMC7877785
